- Tested on: HL-60(TB) leukemia
- Procedure details: NCI tumour cell line growth inhibition, 48 h
TGI reference
Report the figure in µM without appending any unit label.

## Input Given the entry CCOC(=O)c1c(C)c2c(n1Cc1ccccc1)CSCC2=O , report its measured TGI.
## Output 54.1

## Input Next: COc1ccc(C(=O)NCCN(C)C)c2nc3ccccc3cc12
## Output 2.15

## Input Try this compound too: CO/N=C(/C(=O)OC)c1ccccc1COc1ccccc1C(F)(F)F
## Output 51.3

## Input Try Cc1cc(N(C)C)c2ccccc2[n+]1CCCCCCCCCC[n+]1c(C)cc(N(C)C)c2ccccc21 next.
## Output 2.18

## Input Likewise for c1ccc(C(C(=Nc2ccc(Cc3ccc(N=C(C(c4ccccc4)c4ccccc4)N4CC4)cc3)cc2)N2CC2)c2ccccc2)cc1 ?
## Output 18.4

## Input Again, but for Cc1cccc(NC2=C(Cl)C(=O)c3nc(C)ccc3C2=O)c1
## Output 5.8

## Input # repeat for CCCCCCCC(=O)OCC1OC(n2cc(F)c(=O)[nH]c2=O)C(N)C(OC(=O)CCCCCCC)C1O (configuration not stated)
## Output 42.3

## Input Again, but for O=C1c2cccc3cccc(c23)C(=O)N1CCCNCCCCNCCCNCCCN1C(=O)c2cccc3cccc(c23)C1=O
## Output 1.54

## Input Entry NNc1ncnc2nc[nH]c12 please
## Output 21.5

## Input Same question for Oc1oc(C(=C2N=c3ccccc3=N2)c2ccc(Cl)cc2)c(O)c1-c1ccc(Cl)cc1 please.
## Output 5.02

## Input COc1ccc(-c2cc(=O)oc3c4c(ccc23)OCN(Cc2ccc(F)cc2)C4)cc1 , same question.
## Output 57.4

## Input Ok, now O=C(CCSC1=NCCCN1)c1ccc(F)cc1
## Output 30.4

## Input Then what about the compound Cc1cc(C(=O)CSC(=S)SC(C)(C)C)ccc1Cl ?
## Output 44.1

## Input Field entry: CN(C)Cc1cc(C(=O)/C=C/c2ccc([N+](=O)[O-])cc2)cc(CN(C)C)c1O
## Output 5.46

----------
- Tested on: SNB-78 CNS
- Procedure details: NCI tumour cell line growth inhibition, 48 h
Property: TGI

Previously resolved entries follow.
CC(C)=CCC1=C(O)c2ccccc2C(=O)C1=O : > 100 µM
C/C(=N\NC(N)=O)c1sc(-c2nc(C)c(/C(C)=N/NC(N)=O)s2)nc1C : > 100 µM
C=CC1(C)CC(=O)C2(O)C(C)(O1)C(OC(C)=O)C(O)C1C(C)(C)CCC(O)C12C (stereo not given) : > 150 µM
CC1=C(C(=O)Nc2ccccc2)C(c2ccc(Cl)c(Cl)c2)C(C(=O)Nc2ccccc2)=C(C)N1 : 53.8 µM

Continue with the compound presented below.
## Input Form field: reported TGI of Oc1oc(C(=C2N=c3ccccc3=N2)c2ccc(Cl)cc2)c(O)c1-c1ccc(Cl)cc1
## Output > 100 µM

----------
- System: MCF7 breast
- Procedure details: NCI tumour cell line growth inhibition, 48 h; in the data active = GI50 below about 0.43 µM; inactive = the rest
Where a SMILES comes first, the peptide text is derived from it. The star is where a group is joined. Palmitoyl = CCCCCCCCCCCCCCCC(=O)*
Permitted responses: class 1 = active, class 0 = inactive

Below are worked cases with known answers.
CNCCCNc1ccnc2cc(Cl)ccc12 : class 0
NNc1ncnc2nc[nH]c12 : class 0
C=C(CN(C)Cc1ccccc1)c1ccc(NC(=O)c2ccc(C(=C)CN(C)Cc3ccccc3)cc2)cc1 : class 0
C[C@H](CCOc1cccc(CC(=O)O)c1)N(Cc1cccc(C(F)(F)F)c1Cl)CC(c1ccccc1)c1ccccc1 : class 0
CCCCCCCCCCCCCCCC(=O)N1CCCC1C(=O)NCC(=O)NC(Cc1ccccc1)C(=O)N1CCCC1C(=O)NC(CO)C(=O)NC(Cc1ccc(O)cc1)C(=O)NC(CCCCN)C(=O)NC(CC(C)C)C(=O)NC(CCCN=C(N)N)C(=O)N1CCCC1C(=O)NCC(N)=O (stereo not drawn) (Palmitoyl-PGFPSYKLRPG-NH2; configuration not given here) : class 0
COC(=O)/C=C/c1cc(OC(C)=O)c2c(c1)C(C(=O)OC)C(c1ccc(OC(C)=O)c(OC(C)=O)c1)O2 (stereo not drawn) : class 1
NC(=S)N/N=C/c1ncccc1O : class 0

## Input What did the test return for COc1cc2c(cc1OCCCCCN1CCN(c3ncnc4ccccc34)CC1)N=CC1CCCN1C2=O (stereo not drawn) ?
## Output class 1
